Origin of the recorded values: ChEMBL document CHEMBL3632461

assay: Elimination half life in cynomolgus monkey at 1 mg/kg, iv and 3 or 5 mg/kg, po; type: ADME, organism-based, Macaca fascicularis; conditions: in vivo
measurement kind: half-life

Q) Name the recorded half-life of the item COc1ccc(Cl)cc1-c1cc(=O)[nH]c(=S)n1CC(N)=O in your answer.
A) 3.28 h

---

test: Plasma clearance in cynomolgus monkey at 1 mg/kg, iv and 3 or 5 mg/kg, po; type: ADME, organism-based, Macaca fascicularis
measurement kind: clearance (mL/min/kg)
Number in mL/min/kg, nothing else.

Q) Name the recorded clearance of the item COc1ccc(Cl)cc1-c1cc(=O)[nH]c(=S)n1CC(N)=O in your answer.
A) 10.3
